- Test system: GH3-TRE-Luc cell line
- Applied conditions: read-out: AC50 (uM) modified / 1000; Tox21_110001=Tox21_111300; viability, 1 nM T3 present, 24 h
Measured quantity: CC50 (µM)
# unit: µM | format: bare number

Recorded CC50 of N#Cc1nn(-c2c(Cl)cc(C(F)(F)F)cc2Cl)c(N)c1[S+]([O-])C(F)(F)F (stereo not shown) [Fipronil] , please.
36.1

* * *

- Test protocol: in vitro
- Applied conditions: rat, gh3-tre-luc cells, AC50 (uM) modified / 1000, Tox21_110001=Tox21_113138; viability, 1 nM T3 present, 24 h
Measured quantity: CC50 at 24 h

Recorded CC50 at 24 h for Cc1ccc2c(c1)[C@]13CCCC[C@@H]1[C@H](C2)N(C)CC3 [Dimemorfan phosphate] , please?
> 50 µM

* * *

- Test protocol: in vitro
- Applied conditions: rat, gh3-tre-luc cells, AC50 (uM) modified / 1000
Examples of compounds with documented CC50 at 24 h follow.

Examples with their reported CC50 at 24 h follow.
| Compound | CC50 at 24 h |
| --- | --- |
| COc1cc(C[C@H](C)N)c(OC)cc1C | > 100 µM |
| Nc1cc(O)nc(N)n1 [2,4-Diamino-6-hydroxypyrimidine] | > 50 µM |

May I ask what CC50 at 24 h has been recorded for CC1(CO)CN(c2ccccc2)NC1=O (stereo not drawn) ?
> 90 µM

Quick one: CC50 at 24 h for C=C(C)C(=O)OCCOCCOCCOC(=O)C(=C)C [Triethylene glycol dimethacrylate] ?
> 90 µM

Given the entry c1ccc(COCc2ccccc2)cc1 [Dibenzyl ether] , report its measured CC50 at 24 h.
> 100 µM

Given the entry CC(=O)OCC(C)OC(C)=O (stereo not drawn) [Propylene glycol diacetate] , report its measured CC50 at 24 h.
> 90 µM

* * *

- Test system: GH3-TRE-Luc cell line
- Applied conditions: read-out: AC50 (uM) modified / 1000; Tox21_110001=Tox21_110870; viability, 1 nM T3 present, 24 h
Measured quantity: CC50
A complete answer gives the number and then names the unit.

Consider the compound shown here: `CO[C@H]1C[C@@H]2CC[C@@H](C)[C@@](O)(O2)C(=O)C(=O)N2CCCC[C@H]2C(=O)O[C@H]([C@H](C)C[C@@H]2CC[C@@H](O)[C@H](OC)C2)CC(=O)[C@H](C)/C=C(\C)[C@@H](O)[C@@H](OC)C(=O)[C@H](C)C[C@H](C)/C=C/C=C/C=C/1C` What is its recorded CC50?
0.00123 µM

* * *

- Test protocol: in vitro
- Applied conditions: rat, gh3-tre-luc cells, AC50 (uM) modified / 1000, Tox21_110001=Tox21_112853; viability, 1 nM T3 present, 24 h
Measured quantity: CC50 at 24 h

Entry `CN1[C@H]2CC[C@@H]1[C@@H](C(=O)O)[C@@H](OC(=O)c1ccccc1)C2` : reported CC50 at 24 h = ?
> 100 µM

* * *

- Test protocol: in vitro
- Applied conditions: rat, gh3-tre-luc cells, AC50 (uM) modified / 1000, Tox21_110001=Tox21_300595; viability, 1 nM T3 present, 24 h
Measured quantity: CC50 at 24 h

Given the compound O=C(O)C(F)(F)C(F)(F)C(F)(F)C(F)(F)C(F)(F)C(F)(F)C(F)(F)F [Ammonium perfluorooctanoate] , what is its reported CC50 at 24 h?
> 90 µM

* * *

- Test protocol: in vitro
- Applied conditions: rat, gh3-tre-luc cells, AC50 (uM) modified / 1000
Structures can show the parent of a compound that is named as a salt.
Measured quantity: CC50 at 24 h

| Compound | Measured quantity | Result |
| --- | --- | --- |
| CC1(C)S[C@@H]2[C@H](NC(=O)C(c3ccccc3)S(=O)(=O)O)C(=O)N2[C@H]1C(=O)O (stereo partly shown) [Sulbenicillin disodium] | CC50 at 24 h | > 50 µM |
| CCN(CC)S(=O)(=O)c1ccc(C(=O)O)cc1 [Ethebenecid] | CC50 at 24 h | > 50 µM |
| CC(C)[C@H](C(=O)O[C@H](C#N)c1cccc(Oc2ccccc2)c1)c1ccc(Cl)cc1 [Esfenvalerate] | CC50 at 24 h | > 90 µM |
| CCc1occc(=O)c1O [2-Ethyl-3-hydroxy-4H-pyran-4-one] | CC50 at 24 h | > 90 µM |
| CCCCOCCOCCSC#N [2-(2-Butoxyethoxy)ethyl thiocyanate] | CC50 at 24 h | > 100 µM |
| Cc1cc(C(F)(C(F)(F)F)C(F)(F)F)ccc1NC(=O)c1cccc(I)c1C(=O)NC(C)(C)CS(C)(=O)=O [Flubendiamide] | CC50 at 24 h | > 70 µM |
| COC(=O)c1ccc(O)cc1 [Methylparaben] | CC50 at 24 h | > 90 µM |
| C=CCCCCCCCCCCCCCCCC [1-Octadecene] | CC50 at 24 h | > 5 µM |

Would you kindly share the measured CC50 at 24 h for O=C(c1ccccc1)c1ccccc1 [Benzophenone] ?
> 50 µM

What does the record list as CC50 at 24 h for O=c1oc2ccccc2c(O)c1C1CCCc2ccccc21 (stereo not shown) [Coumatetralyl] ?
> 90 µM

For CC(CC=O)CCCC(C)(C)O (stereo not shown) [Hydroxycitronella] , what is its reported CC50 at 24 h?
> 90 µM

For CC(=O)/N=c1/sc(S(N)(=O)=O)nn1C [Methazolamide] , what is its reported CC50 at 24 h?
> 20 µM

Which CC50 at 24 h value belongs to O=C(Oc1ccccc1)c1ccc2ccccc2c1O [Phenyl 1-hydroxy-2-naphthoate] ?
> 90 µM

State the recorded CC50 at 24 h for this entry: CCCCCC#CC(=O)OC [Methyl 2-octynoate]
> 90 µM

Look up CC50 at 24 h for this compound: CC[C@H](C)C(=O)O[C@H]1C[C@@H](C)C=C2C=C[C@H](C)[C@H](CC[C@@H]3C[C@@H](O)CC(=O)O3)[C@H]21 [Lovastatin]
73.4 µM

For Brc1ccccc1-c1ccccc1 [2-Bromobiphenyl] , what is its reported CC50 at 24 h?
> 90 µM

# CC50 at 24 h lookup, item CCCCC/C=C\C/C=C\CCCCCCCC(=O)OC [Methyl linoleate]
> 90 µM

Which CC50 at 24 h is listed for CCCN1CCCC[C@H]1C(=O)Nc1c(C)cccc1C [Ropivacaine hydrochloride] ?
> 50 µM

Which CC50 at 24 h reading was recorded for the compound O=C1O[C@H]2[C@H](O)[C@@H]1OC(O)[C@H]2O (stereo partly shown) [Mannuronic acid lactone] ?
> 50 µM

* * *

- Test protocol: in vitro
- Applied conditions: rat, gh3-tre-luc cells, AC50 (uM) modified / 1000
Reported CC50 at 24 h by item:

Record excerpt, results attached:
| Compound | CC50 at 24 h |
| --- | --- |
| NC(=O)c1cccc([N+](=O)[O-])c1 [3-Nitrobenzamide] | > 90 µM |
| CCCCCC[C@@H](O)C/C=C\CCCCCCCC(=O)OCC(O)CO (some centres unmarked) [Glyceryl monoricinoleate] | > 90 µM |
| CCc1cccc(C)c1 | > 90 µM |

Which CC50 at 24 h is reported for this compound? `NCc1cccc(C2CCN(C(=O)c3ccc(C#Cc4ccccc4F)o3)CC2)c1`
6.44 µM

Quick one: CC50 at 24 h of CCOC(=O)NNc1ccc(N(CC)CC(C)O)nn1 (centres unmarked) ?
> 50 µM

Using the record for C=CCCCCCCCCC(=O)OCC [Ethyl undec-10-enoate] , report its CC50 at 24 h.
> 90 µM

Item `Cn1c(N)nc2nc[nH]c2c1=O` has what recorded CC50 at 24 h?
> 90 µM

Would you mind telling me what CC50 at 24 h value was observed for CO/N=C(\C(=O)N[C@@H]1C(=O)N2C(C(=O)O)=C(CSc3nc(C)c(CC(=O)O)s3)CS[C@H]12)c1csc(N)n1 [Cefodizime sodium] ?
> 50 µM

Please report the recorded CC50 at 24 h for CCC(=O)O[C@@H](O[P@](=O)(CCCCc1ccccc1)CC(=O)N1C[C@H](C2CCCCC2)C[C@H]1C(=O)O)C(C)C [Fosinopril sodium] .
> 50 µM

Any idea what CC50 at 24 h was measured for CC(C(=O)O)c1ccc(CC2CCCC2=O)cc1 (centres unmarked) ?
> 50 µM

Fill blank: measured CC50 at 24 h of the compound `Nc1ccc(S(=O)(=O)Nc2ccnn2-c2ccccc2)cc1` is ____.
> 20 µM

GET /values?readout=CC50 at 24 h&item= CC(=O)OCC(=O)[C@@]1(O)CC[C@H]2[C@@H]3CCC4=CC(=O)CC[C@]4(C)C3=CC[C@@]21C [Anecortave acetate]
> 50 µM

Consider the compound COc1cc(C=O)ccc1OC(=O)C(C)C [Vanillin isobutyrate] and give its measured CC50 at 24 h.
> 90 µM

Entry under review: `Nc1ncnc(Nc2ccccc2)n1` . Reported CC50 at 24 h?
> 50 µM

Recorded values, source paper PMC6792352.
